The compounds listed here are annotated with their %max.
testTarget: Toll-like receptor 7 (Homo sapiens) (UniProt Q9NYK1)
Sequence (whole entry): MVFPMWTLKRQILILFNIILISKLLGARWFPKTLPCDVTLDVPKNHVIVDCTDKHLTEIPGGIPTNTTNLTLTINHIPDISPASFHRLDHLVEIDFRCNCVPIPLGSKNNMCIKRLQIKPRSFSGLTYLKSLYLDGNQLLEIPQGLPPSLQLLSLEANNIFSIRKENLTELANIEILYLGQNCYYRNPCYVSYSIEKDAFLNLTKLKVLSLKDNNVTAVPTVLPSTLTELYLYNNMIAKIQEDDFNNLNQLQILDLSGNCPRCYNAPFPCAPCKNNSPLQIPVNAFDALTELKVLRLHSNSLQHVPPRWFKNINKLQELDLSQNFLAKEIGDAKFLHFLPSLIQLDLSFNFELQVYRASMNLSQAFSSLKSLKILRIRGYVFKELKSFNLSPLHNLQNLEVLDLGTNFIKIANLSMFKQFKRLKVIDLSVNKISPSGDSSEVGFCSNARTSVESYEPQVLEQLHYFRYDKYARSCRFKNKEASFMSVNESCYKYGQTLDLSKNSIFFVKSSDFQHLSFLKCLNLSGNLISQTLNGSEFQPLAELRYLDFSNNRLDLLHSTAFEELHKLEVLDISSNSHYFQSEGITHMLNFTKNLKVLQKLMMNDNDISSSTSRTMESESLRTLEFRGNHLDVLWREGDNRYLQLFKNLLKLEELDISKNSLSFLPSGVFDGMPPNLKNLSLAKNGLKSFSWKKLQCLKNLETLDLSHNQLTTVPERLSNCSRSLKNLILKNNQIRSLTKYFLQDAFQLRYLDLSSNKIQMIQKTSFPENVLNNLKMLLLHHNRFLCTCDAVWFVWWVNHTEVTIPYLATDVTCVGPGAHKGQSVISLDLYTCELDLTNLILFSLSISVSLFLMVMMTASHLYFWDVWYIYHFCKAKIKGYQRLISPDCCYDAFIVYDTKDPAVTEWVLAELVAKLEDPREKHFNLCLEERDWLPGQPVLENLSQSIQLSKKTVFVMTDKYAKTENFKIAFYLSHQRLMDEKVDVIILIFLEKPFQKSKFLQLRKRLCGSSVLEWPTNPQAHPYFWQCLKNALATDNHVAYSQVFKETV
assayExplanation: Agonist activity at human TLR7 expressed in HEK293 cells incubated for 6 hrs by luciferase reporter gene assay relative to resiquimod
Format: cell-based

Use these answered entries as a reference point.
>>> observedmeasurement("Cc1cc(OCCOCCOCCP(=O)(O)O)ccc1CCc1cnc2c(N)nc3cc(CCC(=O)O)ccc3c2c1")
"110%"
>>> observedmeasurement("Cc1ccc2c(c1)nc(N)c1ncc(CCc3ccc(OCCOCCOCCP(=O)(O)O)cc3C)cc12")
"94%"
>>> observedmeasurement("Cc1cc(OCCOCCOCCC(F)(F)P(=O)(O)O)ccc1CCc1cnc2c(N)nc3cc(CCC(=O)O)ccc3c2c1")
"100%"
>>> observedmeasurement("COc1ccc(CCc2cnc3c(N)nc4cc(C(=O)P(=O)(O)O)ccc4c3c2)c(C)c1")
"112%"
>>> observedmeasurement("Cc1ccc2c(c1)nc(N)c1ncc(CCc3ccc(OCCOCCOCCC(F)(F)P(=O)(O)O)cc3C)cc12")
"95%"

Recorded result, Cc1cc(OCCCC(F)(F)P(=O)(O)O)ccc1CCc1cnc2c(N)nc3cc(CCC(=O)O)ccc3c2c1 , %max: 95%
